target: human PAH with the R408W mutation (Homo sapiens, UniProt P00439, R408W); construct: expressed in transfected cells; test: Cell Based Phenylalanine Flux Assay; conditions: A375 cells expressing human PAH R408W; 24 hrs compound incubation; 13C-Tyrosine by LC-MS; average where tested multiple times; read-out: AC50;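 further: after compound treatment, cells received sepiapterin plus isotope-labelled Phenylalanine for 4 hours, then labelled Tyrosine in the medium was quantified, 10-point 2-fold dilution series run in duplicate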
Sequence (P00439 whole entry R408W): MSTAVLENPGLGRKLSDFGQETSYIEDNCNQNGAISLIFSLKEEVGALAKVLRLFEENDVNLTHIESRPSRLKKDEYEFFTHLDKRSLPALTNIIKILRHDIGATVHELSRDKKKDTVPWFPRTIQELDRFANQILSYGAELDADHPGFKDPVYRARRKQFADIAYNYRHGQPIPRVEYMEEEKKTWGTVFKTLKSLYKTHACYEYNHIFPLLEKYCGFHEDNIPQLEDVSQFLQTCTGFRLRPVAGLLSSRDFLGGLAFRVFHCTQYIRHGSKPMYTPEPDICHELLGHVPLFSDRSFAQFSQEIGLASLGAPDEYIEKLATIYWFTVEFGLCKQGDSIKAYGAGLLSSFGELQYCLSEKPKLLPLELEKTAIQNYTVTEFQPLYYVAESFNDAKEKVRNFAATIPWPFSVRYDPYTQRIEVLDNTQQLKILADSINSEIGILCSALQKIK
REPORTED ENDPOINT: AC50

In the examples that follow, each entry is paired with its recorded AC50.
>>> result("Cc1cccc(-c2nnc(N3CCc4[nH]cnc4[C@@H]3c3cc4c(C5CC5)cccn4n3)o2)n1")
"> 5000 nM"
>>> result("Cc1nnc(N2CCc3[nH]cnc3[C@H]2c2cc3c(C)cccn3n2)o1")
"1000 to 5000 nM"

For each listed entry, give its AC50.
1. Fc1cccn2nc([C@@H]3c4nc[nH]c4CCN3c3ccccc3)cc12
2. Cn1cc(-c2nnc(C(=O)N3CCc4[nH]cnc4[C@H]3c3cc4ccccn4n3)s2)cn1

(A)
1. < 500 nM
2. 500 to 1000 nM
